Cited source: PubChem BioAssay (NCI)

tested on: SF-268 CNS; experiment: NCI tumour cell line growth inhibition, 48 h
metricName: TGI

>  <compound>
Nc1c2ccccc2nc2ccccc12 (tested in a mixture with another compound)

>  <systemTested>
SF-268 CNS

>  <metricName>
TGI

>  <valueMeasured>
6.08 µM

$$$$
>  <compound>
COC(=O)C1=C(C)N(NC(N)=O)C(C)(O)C12CCOC2=O (stereo not given)

>  <systemTested>
SF-268 CNS

>  <metricName>
TGI

>  <valueMeasured>
> 100 µM

$$$$
>  <compound>
COC(=O)Cc1cc(=O)n2c([nH]c3ccccc32)c1C#N

>  <systemTested>
SF-268 CNS

>  <metricName>
TGI

>  <valueMeasured>
> 100 µM

$$$$
>  <compound>
CCOC(=O)c1cc(Br)c(-c2onc(C)c2Br)n1C

>  <systemTested>
SF-268 CNS

>  <metricName>
TGI

>  <valueMeasured>
> 100 µM

$$$$

Next compound, please.
Inquiry: Write down the reported TGI of COCN1C(=O)[C@@H]2CCCN2C(=O)c2ccc([N+](=O)[O-])cc21 , test system: SF-268 CNS.
Reply text: > 100 µM
